Kindly supply the reported PROTEASE % INHIB. values for the records listed here.
Target: HIV-1 protease (Human immunodeficiency virus type 1 group M subtype B)
Assay: biochemical
Details: Table II; enzyme HIV-1; DOSE 1.100 (unit not given)
Answers are plain numbers, in %.

Before answering, review these 5 worked examples.
| Compound | Measurement |
| --- | --- |
| CCCC1(CCC)CC(O)=C(C(c2cccc(NS(=O)(=O)c3cn(C)cn3)c2)C(C)(C)C)C(=O)O1 (single isomer, unassigned) [Example 319] | 60.14 |
| CCC[C@@]1(CCc2ccc(F)cc2)CC(O)=C([C@H](c2cccc(NS(=O)(=O)c3ccc(C#N)cn3)c2)C(C)(C)C)C(=O)O1 (single isomer, unassigned) | 71.4 |
| CCC[C@@]1(CCc2ccc(F)cc2)CC(O)=C([C@@H](c2cccc(NS(=O)(=O)c3cn(C)cn3)c2)C(C)(C)C)C(=O)O1 (single isomer, unassigned) | 99.92 |
| CC(C)(C)C(C1=C(O)C2CCCCCCC2OC1=O)c1cccc(NS(=O)(=O)c2ccc(C#N)cn2)c1 (stereo not drawn) | 103.83 |
| CCCC1(CCC)CC(O)=C(C(CC)c2cccc(NS(=O)(=O)c3ccc(C(F)(F)F)cn3)c2)C(=O)O1 (stereo not drawn) | 93.01 |

The compound identified as CCCC1(CCC)CC(O)=C(C(CC)c2cccc(NS(=O)(=O)c3ccc(C(N)=O)cn3)c2)C(=O)O1 (stereo not drawn) registered its PROTEASE % INHIB. at 94.57

---

Target: HIV-1 protease (Human immunodeficiency virus type 1 group M subtype B)
Experiment: biochemical
Details: Table I; Dose 0.370 μM; read-out: Protease % Inhib
Property Label: inhibition at 0.37 µM (%)
Answers are plain numbers, in %.

Before answering, review these 6 worked examples.
| Compound | inhibition at 0.37 µM / % |
| --- | --- |
| O=c1oc(C(CC2CC2)CC2CC2)cc(O)c1C(c1cccc(NS(=O)(=O)c2cccc3cccnc23)c1)C1CC1 (centres unmarked) | 119 |
| CC[C@H](Cc1ccccc1)c1cc(O)c(C(c2cccc(NS(=O)(=O)c3ccccn3)c2)C2CC2)c(=O)o1 (single isomer, unassigned) | 88.7 |
| CCCC1(CCc2ccc(F)cc2)CC(O)=C(C(c2cccc(NS(=O)(=O)c3ccc(C#N)cn3)c2)C(C)(C)C)C(=O)O1 (centres unmarked) | 96.8 |
| CCCC1(CCc2ccccc2)CC(O)=C(C(CC)c2cccc(NS(=O)(=O)c3ccc(C#N)cc3)c2)C(=O)O1 (centres unmarked) | 102 |
| CCCC1(CCc2ccc(F)cc2)CC(O)=C(C(c2cccc(NS(=O)(=O)c3cn(C)cn3)c2)C(C)(C)C)C(=O)O1 (centres unmarked) | 85 |
| Cc1ccc(S(=O)(=O)Cc2cccc(C(c3c(O)c4c(oc3=O)CCCCCC4)C3CC3)c2)cc1 (centres unmarked) | 88.1 |

Give one value of inhibition at 0.37 µM per listed compound.
1. O=c1oc(C(CC2CC2)CC2CC2)cc(O)c1C(c1cccc(NS(=O)(=O)c2nc3ccccc3[nH]2)c1)C1CC1 (centres unmarked)
2. CCC(CCOCCOC)c1cc(O)c(C(c2cccc(NS(=O)(=O)c3ccc(C#N)cc3)c2)C2CC2)c(=O)o1 (centres unmarked)
3. O=c1oc(C(CC2CC2)CC2CC2)cc(O)c1C(c1cccc(NS(=O)(=O)c2ccc3ccccc3n2)c1)C1CC1 (centres unmarked)
4. CCCC1CCCCCc2c1oc(=O)c(C(c1cccc(NS(=O)(=O)c3ccccc3)c1)C1CC1)c2O (centres unmarked)

Reply text:
84
86.6
82.6
87.3

Cited source: patent US6169181A
